# System: male Wistar rats
# METHOD SUMMARY: one-trial passive avoidance test: improvement of experimental retrograde amnesia by cycloheximide
# Type: in vivo, rat
# CONDITION SET: dose 1 ng/kg, given 1 h before electro-shock (0.5 mA); cycloheximide 2.7 to 3.0 mg/kg s.c.; retention tested at 48 hours; control = cycloheximide alone
# Method: 221, pp. […], 1983. […] At 48 hours after the administration was made, memory retention of the rats were tested.
Non-standard residues stand in square brackets, D forms with d. Residues, ends and D or L forms follow the SMILES beside them. *: point of attachment. Cys(free,S-linked) = N[C@@H](CS*)C(=O)O; pGlu = O=C1CC[C@@H](C(=O)O)N1; Aze = O=C(O)[C@@H]1CCN1
What Effect (%): ratio of response latent period of each group to that of the control groups was measured for each of the following?
Kindly report the value followed by its unit.

Some solved cases for reference:
>>> value_measured("N=C(N)NCCC[C@H](NC(=O)[C@@H]1CCCN1C(=O)[C@H](CSSC[C@H](N)C(=O)O)NC(=O)[C@@H]1CCCN1)C(=O)NCC(N)=O [Example 17] (H-PC(Cys(free,S-linked))PRG-NH2)")
"365%"
>>> value_measured("N=C(N)NCCC[C@H](NC(=O)[C@@H]1CCN1C(=O)[C@H](CSSC[C@H](N)C(=O)O)NC(=O)[C@H](CC(N)=O)NC(=O)[C@@H]1CCC(=O)N1)C(=O)NCC(N)=O [Example 6] ([pGlu]NC(Cys(free,S-linked))[Aze]RG-NH2)")
"239%"
>>> value_measured("C[C@H](NC(=O)[C@@H](N)CC(N)=O)C(=O)N1CCC[C@H]1C(=O)N[C@@H](CCCNC(=N)N)C(=O)O [Example 9, H-Asn-Ala-Pro-Arg-OH acetate] (H-NAPR-OH)")
"460%"

Please examine the following record next.
Q) Item under review: N=C(N)NCCC[C@H](NC(=O)[C@@H]1CCCCN1C(=O)[C@H](CO)NC(=O)[C@@H](N)CC(N)=O)C(=O)O [Example 12, H-Asn Ser-Pip-Arg-OH acetate] (HELM PEPTIDE1{N.S.[O=C([C@@H]1CCCCN1[*:1])[*:2]].R}$$$$V2.0) . Reported Effect (%): ratio of response latent period of each group to that of the control groups?
A) 235%

Data credit: patent US5112947A
